// data source = ChEMBL document CHEMBL1629592

Tested on: Enterovirus
Assay: Antiviral activity against Human enterovirus CVB2 infected in Vero cells after 4 to 7 days by plaque reduction assay
Format: functional, organism-based
MEASURE_NAME: pEC50
Would you please state pEC50, meaning minus log10 of the concentration in mol/L, as a bare number?

Query CCOC(=O)/C=C/[C@H](C[C@@H]1CCNC1=O)NC(=O)[C@@H](CC(=O)[C@@H](NC(=O)c1cc(C)on1)C(C)C)Cc1ccc(F)cc1 yields pEC50 of 6.01

###

Test system: Enterovirus
Test: Antiviral activity against Human enterovirus EV71 infected in human HeLa-G3CwtR cells after 36 to 48 hrs by FRET assay
Format: functional, organism-based
MEASURE_NAME: EC50

The reported EC50 value, Enterovirus, for CCOC(=O)/C=C/[C@H](C[C@@H]1CCNC1=O)NC(=O)[C@@H](CC(=O)[C@@H](NC(=O)c1cc(C)on1)C(C)C)Cc1ccc(F)cc1 reads 781 nM

###

Tested on: Enterovirus
Assay: Antiviral activity against Human enterovirus CVA16 infected in human HeLa cells after 2 to 4 days by formazan dye reduction assay
Format: functional, organism-based
MEASURE_NAME: EC50 (µM)
Give a bare numeral; the unit µM is implied.

The compound listed as CCOC(=O)/C=C/[C@H](C[C@@H]1CCNC1=O)NC(=O)[C@@H](CC(=O)[C@@H](NC(=O)c1cc(C)on1)C(C)C)Cc1ccc(F)cc1 shows EC50 equal to 0.27

###

Tested on: Enterovirus
Experiment: Antiviral activity against Human enterovirus CVB1 infected in human HeLa-G3CwtR cells after 36 to 48 hrs by FRET assay
Format: functional, organism-based
MEASURE_NAME: pEC50
Expect pEC50 as a plain number equal to -log10 of the molar concentration.

Sample CCOC(=O)/C=C/[C@H](C[C@@H]1CCNC1=O)NC(=O)[C@@H](CC(=O)[C@@H](NC(=O)c1cc(C)on1)C(C)C)Cc1ccc(F)cc1 ; pEC50 observed: 5.78

###

Test system: Enterovirus
Assay: Antiviral activity against Human enterovirus CVB2 infected in human HeLa cells after 2 to 4 days by formazan dye reduction assay
Type: functional, organism-based
MEASURE_NAME: pEC50
pEC50 is defined as minus the log10 of a concentration measured in mol/L.

Reported pEC50 ( CCOC(=O)/C=C/[C@H](C[C@@H]1CCNC1=O)NC(=O)[C@@H](CC(=O)[C@@H](NC(=O)c1cc(C)on1)C(C)C)Cc1ccc(F)cc1 ) = 6.11
